# credit: PubChem BioAssay (NCI)

# Test system: RXF 393 renal
# Measurement notes: NCI-60 one-dose screen, 48 h (100 = growth as untreated, 0 = no growth, -100 = all killed)
# Conditions: 10 µM
This is part of a sample that, as a whole, favours compounds with a hit. Of some 83,000 tested, about 20% had one in any assay.
Metric name: growth (%)
Numbers only; they are read as %.

Would you please look over these solved cases?
INSERT INTO assay_data (compound, units_of_measure, value_measured) VALUES
  ('COc1nc2c(c(=O)n1C)CN(c1ccccc1)C(=O)C(C)N2 (centres undefined)', '%', 95.2),
  ('CC(=O)OC1C=CC(OC(C)=O)O1 (centres undefined)', '%', 112),
  ('CCOC(=O)C(C)(c1ccccc1)c1ccccc1', '%', 123),
  ('C/C=C/CSC(C)(C)C(=O)NC', '%', 110),
  ('COc1ccc(/C=C2/SC(=S)NC2=O)c(OC)c1OC', '%', 81.5),
  ('Nc1ccc(-c2cccs2)cc1NC(=O)c1ccc(CCCC(=O)Nc2ccc(C3CC3N)cc2)cc1 (centres undefined)', '%', 77);

Data point: CN1C(=O)C2(Nc3cc(Cl)ccc3S2)c2cc(Cl)ccc21 (centres undefined) ; growth = 106

Data point: Cc1cccc(N=Cc2ccccc2O)c1C ; growth = 110

Data point: CC(=O)N[C@H](C(=O)N[C@@H](CCCNC(=N)N)C(=O)N[C@@H](CCCCN)C(=O)N[C@@H](CCCNC(=N)N)C(=O)N[C@]1(C)CCC/C=C\CCC[C@@](C)(C(=O)N[C@@H](CC(C)C)C(=O)N[C@@H](CC(C)C)C(=O)N[C@@H](CCC(N)=O)C(=O)N[C@@H](CCC(=O)O)C(=O)N[C@@H](CCCNC(=N)N)C(=O)N[C@@H](CCC(=O)O)C(=O)N[C@@H](CC(C)C)C(=O)N[C@H](C(=O)N[C@@H](CCC(=O)O)C(N)=O)C(C)C)NC(=O)[C@H](CCCNC(=N)N)NC(=O)[C@H](CC(C)C)NC1=O)C(C)C ; growth = 119
